# System: Escherichia coli ATCC BAA-2469
# Assay info: percent growth inhibition of drug + antibiotic vs DMSO control; higher = more growth inhibition
# Condition label: antibiotic (0.125x MIC): gentamicin; 7 µM
Counter-ions that a name gives are not always drawn.
Observed property: percent growth inhibition (%)

{"Compound": "NC(=O)N/N=C/c1ccc([N+](=O)[O-])o1", "System tested": "Escherichia coli ATCC BAA-2469", "Observed property": "percent growth inhibition", "Unit label": "%", "Measured number": 8.48}
{"Compound": "COC(=O)N/N=C/c1c[n+]([O-])c2ccccc2[n+]1[O-]", "System tested": "Escherichia coli ATCC BAA-2469", "Observed property": "percent growth inhibition", "Unit label": "%", "Measured number": 46.5}
{"Compound": "COc1cc(C(=O)NCc2ccc(OCCN(C)C)cc2)cc(OC)c1OC [Trimethobenzamide hydrochloride]", "System tested": "Escherichia coli ATCC BAA-2469", "Observed property": "percent growth inhibition", "Unit label": "%", "Measured number": 0.833}
{"Compound": "O=C(Nc1ccc([N+](=O)[O-])cc1Cl)c1cc(Cl)ccc1O [Niclosamide]", "System tested": "Escherichia coli ATCC BAA-2469", "Observed property": "percent growth inhibition", "Unit label": "%", "Measured number": 10.1}
{"Compound": "CCN(CC)CCNC(=O)c1cc(Br)c(N)cc1OC [Bromopride]", "System tested": "Escherichia coli ATCC BAA-2469", "Observed property": "percent growth inhibition", "Unit label": "%", "Measured number": 1.42}
{"Compound": "CN(C)c1ccc(O)c2c1C[C@H]1C[C@H]3[C@H](N(C)C)C(O)=C(C(N)=O)C(=O)[C@@]3(O)C(O)=C1C2=O [Minocycline hydrochloride]", "System tested": "Escherichia coli ATCC BAA-2469", "Observed property": "percent growth inhibition", "Unit label": "%", "Measured number": 38.6}
{"Compound": "NS(=O)(=O)c1cc2c(cc1C(F)(F)F)NC(Cc1ccccc1)NS2(=O)=O (configuration not stated) [Bendroflumethiazide]", "System tested": "Escherichia coli ATCC BAA-2469", "Observed property": "percent growth inhibition", "Unit label": "%", "Measured number": -0.966}
{"Compound": "C#C[C@]1(O)CC[C@H]2[C@@H]3CCC4=C(CCC(=O)C4)[C@H]3CC[C@@]21C", "System tested": "Escherichia coli ATCC BAA-2469", "Observed property": "percent growth inhibition", "Unit label": "%", "Measured number": 4.39}
{"Compound": "CCOC(=O)c1ccc(N)cc1", "System tested": "Escherichia coli ATCC BAA-2469", "Observed property": "percent growth inhibition", "Unit label": "%", "Measured number": 0.573}
{"Compound": "CCCCNc1c(C(=O)OCC)c(C)nc2c1cnn2CC [Tracazolate hydrochloride]", "System tested": "Escherichia coli ATCC BAA-2469", "Observed property": "percent growth inhibition", "Unit label": "%", "Measured number": 0.683}
{"Compound": "O=c1[nH]c(=O)n([C@H]2C[C@H](O)[C@@H](CO)O2)cc1C(F)(F)F", "System tested": "Escherichia coli ATCC BAA-2469", "Observed property": "percent growth inhibition", "Unit label": "%", "Measured number": 6.11}
{"Compound": "Nc1nc(F)nc2c1ncn2[C@@H]1O[C@H](CO)[C@@H](O)[C@@H]1O", "System tested": "Escherichia coli ATCC BAA-2469", "Observed property": "percent growth inhibition", "Unit label": "%", "Measured number": 31.6}
{"Compound": "Oc1c(Cl)cc(Cl)c(Cl)c1Cc1c(O)c(Cl)cc(Cl)c1Cl", "System tested": "Escherichia coli ATCC BAA-2469", "Observed property": "percent growth inhibition", "Unit label": "%", "Measured number": 21.4}
{"Compound": "N[C@@H]1CCCCN(c2c(F)cc3c(=O)c(C(=O)O)cn(C4CC4)c3c2Cl)C1 [Besifloxacin hydrochloride]", "System tested": "Escherichia coli ATCC BAA-2469", "Observed property": "percent growth inhibition", "Unit label": "%", "Measured number": 6.28}
{"Compound": "O=C1CN(/N=C/c2ccc([N+](=O)[O-])o2)C(=O)N1", "System tested": "Escherichia coli ATCC BAA-2469", "Observed property": "percent growth inhibition", "Unit label": "%", "Measured number": 6.28}
{"Compound": "COc1cc(NS(=O)(=O)c2ccc(N)cc2)nc(OC)n1", "System tested": "Escherichia coli ATCC BAA-2469", "Observed property": "percent growth inhibition", "Unit label": "%", "Measured number": 1.55}
{"Compound": "CO/N=C(\\C(=O)N[C@@H]1C(=O)N2C(C(=O)O)=C(COC(N)=O)CS[C@H]12)c1ccco1 [Cefuroxime sodium salt]", "System tested": "Escherichia coli ATCC BAA-2469", "Observed property": "percent growth inhibition", "Unit label": "%", "Measured number": -0.221}
